# target_or_system: UniProt:P26358
# assay_procedure: Inhibition of DNMT1 (unknown origin) at 5 uM preincubated for 15 mins followed by substrate and [3H-SAM] addition and measured after 60 mins by microbeta analysis relative to control
# condition: time 75.0 min
readout_name: inhibition (%)

Some solved cases for reference:
[[record]]
structure_as_smiles = "CN1CCC(Nc2nc(N3CCCCC3)nc3c2ccn3CCCN2CCCC2)CC1"
target_or_system = "UniProt:P26358"
readout_name = "inhibition"
units = "%"
recorded_value = 20

[[record]]
structure_as_smiles = "CN1CCC(Nc2nc(-c3ccc(C#N)c(F)c3)nc3c2ccn3CCCN2CCCC2)CC1"
target_or_system = "UniProt:P26358"
readout_name = "inhibition"
units = "%"
recorded_value = 82

[[record]]
structure_as_smiles = "Cc1ccc(-c2cc(NCC3CCNCC3)c3cnn(CCCN4CCCC4)c3c2)o1"
target_or_system = "UniProt:P26358"
readout_name = "inhibition"
units = "%"
recorded_value = 41


A = CC(C)N1CCC(Nc2nc(N3CCN(C)CC3)nc3c2ncn3CCCN2CCCC2)CC1
B = CC(C)(C)OC(=O)N1CCC(CNc2cc(-c3ccc(F)cc3)cc3c2cnn3CCCN2CCCC2)CC1
C = Cc1ccc(-c2cc(NCC3CCN(Cc4ccccc4)CC3)c3cnn(CCCN4CCCC4)c3c2)o1
Thanks in advance: please rank these 3 entries by inhibition, highest to lowest. Provide your answer as the labels ordered per the instruction.
C, B, A
(C: 61%, B: 32%, A: 17%)

* * *

# Tested on: MV4-11
# assay_procedure: Antiproliferative activity against human MV4-11 cells assessed as inhibition of cell viability measured after 72 hrs by MTT assay
# Type: functional, cell-based
# condition: MV4-11, 72 h
readout_name: IC50 (µM)

[[record]]
structure_as_smiles = "CN1CCC(Nc2nc(-c3ccc(N)nc3)nc3c2ccn3CCCN2CCCC2)CC1"
target_or_system = "MV4-11"
recorded_value = 18.3

[[record]]
structure_as_smiles = "CC(C)(C)OC(=O)N1CCC(CNc2cc(-c3ccc(F)cc3)cc3c2cnn3CCCN2CCCC2)CC1"
target_or_system = "MV4-11"
recorded_value = 1.21

[[record]]
structure_as_smiles = "CN1CCC(Nc2nc(N3CCCC3)nc3c2ccn3CCCN2CCCC2)CC1"
target_or_system = "MV4-11"
recorded_value = 11

[[record]]
structure_as_smiles = "Cc1ccc(-c2cc(NCC3CCN(C(=O)OC(C)(C)C)CC3)c3cnn(CCCN4CCCC4)c3c2)o1"
target_or_system = "MV4-11"
recorded_value = 1.06

[[record]]
structure_as_smiles = "CN1CCN(c2cc(NCC3CCN(C(=O)C4CCCC4)CC3)c3cnn(CCCN4CCOCC4)c3c2)CC1"
target_or_system = "MV4-11"
recorded_value = 8.67


a = CN1CCC(Nc2nc(-c3ccccc3)nc3c2ccn3CCCN2CCCC2)CC1
b = CN1CCC(Nc2nc(-c3ccc(F)nc3)nc3c2ccn3CCCN2CCCC2)CC1
c = CN1CCC(Nc2nc(N3CCN(C)CC3)nc3c2ccn3CCCN2CCOCC2)CC1
d = Cc1cc(Nc2ccc(NC(=O)c3ccc(Nc4ccnc5ccccc45)cc3)cc2)nc(N)n1
e = CN1CCC(Nc2nc(N3CCCCC3)nc3c2ccn3CCCN2CCCC2)CC1
Sort (5 molecules) by IC50: min first. Provide your answer as the labels ordered per the instruction.
d, b, a, e, c
(d: 0.98 µM, b: 3.87 µM, a: 6.68 µM, e: 9.62 µM, c: 23.8 µM)

* * *

# target_or_system: DNA (cytosine-5)-methyltransferase 1 (Homo sapiens)
# Sequence (P26358 whole entry): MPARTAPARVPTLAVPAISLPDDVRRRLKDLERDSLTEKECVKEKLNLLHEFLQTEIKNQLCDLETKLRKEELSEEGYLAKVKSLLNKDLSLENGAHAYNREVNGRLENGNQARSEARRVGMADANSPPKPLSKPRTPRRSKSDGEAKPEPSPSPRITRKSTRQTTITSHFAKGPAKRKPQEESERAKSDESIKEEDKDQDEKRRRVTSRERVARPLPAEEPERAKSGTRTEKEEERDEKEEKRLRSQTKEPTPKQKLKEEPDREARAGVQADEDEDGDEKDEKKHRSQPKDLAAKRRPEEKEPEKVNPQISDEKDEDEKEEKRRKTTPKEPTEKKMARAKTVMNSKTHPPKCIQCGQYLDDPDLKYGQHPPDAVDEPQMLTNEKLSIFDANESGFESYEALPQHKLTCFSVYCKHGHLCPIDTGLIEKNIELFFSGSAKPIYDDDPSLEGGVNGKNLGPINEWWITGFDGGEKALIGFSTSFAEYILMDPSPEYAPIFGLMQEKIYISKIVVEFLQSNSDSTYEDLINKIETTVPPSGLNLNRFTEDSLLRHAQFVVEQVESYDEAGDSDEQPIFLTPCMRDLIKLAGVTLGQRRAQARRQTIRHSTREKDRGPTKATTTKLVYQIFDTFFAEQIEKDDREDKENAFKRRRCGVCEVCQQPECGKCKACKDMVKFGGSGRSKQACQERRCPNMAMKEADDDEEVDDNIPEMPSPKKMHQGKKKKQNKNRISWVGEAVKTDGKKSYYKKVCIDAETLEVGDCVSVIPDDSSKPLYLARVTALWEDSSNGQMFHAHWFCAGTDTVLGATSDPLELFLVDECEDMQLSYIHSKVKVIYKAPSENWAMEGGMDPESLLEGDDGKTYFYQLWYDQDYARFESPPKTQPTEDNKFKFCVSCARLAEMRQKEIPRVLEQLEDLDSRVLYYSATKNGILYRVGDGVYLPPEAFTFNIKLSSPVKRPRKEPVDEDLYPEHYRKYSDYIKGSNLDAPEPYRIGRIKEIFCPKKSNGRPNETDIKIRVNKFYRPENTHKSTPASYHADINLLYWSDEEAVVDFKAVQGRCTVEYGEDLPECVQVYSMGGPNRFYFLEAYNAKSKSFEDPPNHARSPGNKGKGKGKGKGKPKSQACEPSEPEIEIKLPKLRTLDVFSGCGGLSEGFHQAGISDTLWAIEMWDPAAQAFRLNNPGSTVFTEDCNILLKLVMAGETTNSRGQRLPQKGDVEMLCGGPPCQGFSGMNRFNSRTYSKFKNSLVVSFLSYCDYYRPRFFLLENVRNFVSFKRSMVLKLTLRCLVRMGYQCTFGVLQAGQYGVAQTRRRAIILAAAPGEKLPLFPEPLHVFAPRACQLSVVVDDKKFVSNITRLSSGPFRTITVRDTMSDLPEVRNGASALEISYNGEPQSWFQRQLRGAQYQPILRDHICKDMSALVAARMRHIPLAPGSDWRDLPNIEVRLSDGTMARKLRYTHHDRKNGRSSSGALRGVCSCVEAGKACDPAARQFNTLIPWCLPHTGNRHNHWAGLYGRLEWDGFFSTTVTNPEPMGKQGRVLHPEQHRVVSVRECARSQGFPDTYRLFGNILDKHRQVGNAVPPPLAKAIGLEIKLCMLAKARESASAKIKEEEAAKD
# assay_procedure: Inhibition of DNMT1 (unknown origin) at 5 uM preincubated for 15 mins followed by substrate and [3H-SAM] addition and measured after 60 mins by microbeta analysis relative to control
# condition: time 75.0 min
readout_name: inhibition (%)

[[record]]
structure_as_smiles = "CN1CCC(Nc2nc(-c3cn[nH]c3)nc3c2ccn3CCCN2CCCC2)CC1"
target_or_system = "DNA (cytosine-5)-methyltransferase 1 (Homo sapiens)"
readout_name = "inhibition"
recorded_value = 35


A = CN1CCC(Nc2nc(N3CCCN(C)CC3)nc3c2ccn3CCCN2CCCC2)CC1
B = CC(C)N1CCC(Nc2nc(N3CCCCC3)nc3c2ccn3CCCN2CCCC2)CC1
Consider entries A and B . Which has the numerically lower inhibition? State the label of the item chosen.
B

* * *

# Tested on: MV4-11
# assay_procedure: Antiproliferative activity against human MV4-11 cells assessed as inhibition of cell viability measured after 72 hrs by MTT assay
# Assay type: functional, cell-based
# condition: MV4-11, 72 h
pIC50: −log10 of the molar value.
readout_name: pIC50

Give the measured pIC50 of CN1CCC(Nc2nc(-c3cn[nH]c3)nc3c2ccn3CCCN2CCCC2)CC1 .
< 4.00

Give the measured pIC50 of CC(C)N1CCC(Nc2nc(N3CCCCC3)nc3c2ncn3CCCN2CCCC2)CC1 .
< 4.00

Give the measured pIC50 of CC(C)N1CCC(Nc2nc(-c3cn[nH]c3)nc3c2ncn3CCCN2CCCC2)CC1 .
< 4.00
